experiment: yeast display, Sf9 membrane polyspecificity reagent, FACS + sequencing; frameworks hold sequencing errors
EXPERIMENTAL READOUT: polyreactivity (PSR sort gate)

| RESIDUE STRING | REPORTED VALUE |
| --- | --- |
| QFQLVESWGGLVQAGGSLRLSCAASGYIFGYVMGWYRQAPGKERELVAAITYSSGNTYYADSVKGRFTISRDNAKNTVYLQMNSLKPEDTAVYYCAKQAYYKGRLAYGYWGQATQVTVSS | high polyreactivity |
| QVKLVESGGGLVQAGGSLRLSCAASGFTFTWYVMGWYRQAPGKESELVAAISRSGGSKYYADSVKGRFTISRDNAKNTVYLQMNRLKPEDTAVYYCADVGTSSYDYWGQGTQVTVSS | high polyreactivity |

----------
test: yeast display, Sf9 membrane polyspecificity reagent, FACS + sequencing; frameworks hold sequencing errors
EXPERIMENTAL READOUT: polyreactivity (PSR sort gate)

| RESIDUE STRING | polyreactivity (PSR sort gate) |
| --- | --- |
| QVQLVESGGGLVQAGGSLRLSCAASGFIFHTNTMGWYRQAPGKERELVAAISSGGRTNYADSVKGRFTISRDNAKNTVYLQMNSLKPEDTAVYYCAARVGSGFDSWGQGTQVTVSS | high polyreactivity |
| QVQLVESGGGLVQAGGSLRLSCAASGRTLRGYAMGWYRQAPGKERELVARITGSGGSTYADSVKGRFTISRDNAKNTVYLQMNSLKPEDTAVYYCAAGYSIYYYYAYTISRVSYDYWGQGTQVTVSS | high polyreactivity |
| QVQLVESGGGLVQAGGSLRLSCAASGRNFSFYAMGWYRQAPGQERELVAAITYTDGSTYADSVKGRFTISRDNAKNTVYLQMNSLKPDDTAVYYFATRYRWTPYDYWGQGTQVTVSS | low polyreactivity |
| QVQLVESGGGLVQAGGSLRLSCAASGFTFGSYAMGWYRQAPGKERELVAVITRSGRTNYADSVKGRFTISRDNAKNTVYLLMNSLKPEDTAVYYCNADDVDDEVSPDLTEMDYWGQGTQVTVSS | low polyreactivity |

Now look at this entry.
Data request, read-out polyreactivity (PSR sort gate), for QVQLVESGGGLVQAGGSLRLSCAASGRTFRSYAMGWYRQAPGKERELVATITRGSSTNYADSGKGRFTISRDNAKNTVYLQMNSLKPEDTAVYYCNADGKPPYISWLYDYWGQGTQVTVSS
low polyreactivity

----------
assay: yeast display, Sf9 membrane polyspecificity reagent, FACS + sequencing; frameworks hold sequencing errors
EXPERIMENTAL READOUT: polyreactivity (PSR sort gate)

| RESIDUE STRING | EXPERIMENTAL READOUT | REPORTED VALUE |
| --- | --- | --- |
| QVQLVESGRGLVQAGGSLRLSCAASGSTFGPYAMGWYRQAPGKEREFVAGISKSTSSTYYADSVKGRFTISRDNAKNTVYLQMNSLKPEDTAVYYCAAQGGRNRGYRYYWGQGTQVTVSS | polyreactivity (PSR sort gate) | high polyreactivity |
| QVQLEESGGGLVQAGGSLRLSCAASGSTLIYNAMGWYRPAPGKERELVAAISASGTRTYYADSVKGRFTISRDNAKNTVYLQMNSLKPEDTAVYYCNALRRAPRAEYYYWGQGTQVTVSS | polyreactivity (PSR sort gate) | high polyreactivity |
